These entries and their values trace back to paper PMC5540273.

Let's look at some compounds and their measured %Inh.
System: NIK;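 further: KINOMEscan kinase panel screen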
Construct: gene MAP3K14
Settings: concentration: 1 μM, replicates: in singlicate; n = 1
Property: %Inh (%)

1. O=C(Nc1n[nH]c2nc(-c3nccs3)c(Br)cc12)C1CCCC1    33
2. Cc1ccc(NC(=O)Nc2cc(C(C)(C)C)nn2-c2ccccc2)cc1    35
3. CCCc1ccc(S(=O)(=O)NC2CCN(c3ccnc(Nc4ccc(F)cc4)n3)C2)cc1 (stereo not drawn)    23
4. COC(=O)c1c(-c2ccccc2)c2cc(C(=O)O)ccc2c(=O)n1Cc1ccccc1    0
5. COc1ccc(Nc2nccc(-c3cccc(NC(=O)c4cc5cc(F)ccc5[nH]4)c3)n2)cc1    50
6. Cn1ccc2ncnc(Oc3ccc(NC(=O)Nc4ccccc4)cc3)c21    6
